// data source = the supplement of paper PMC6555819

- Test system: PPARg:RXRa DBDmut IVT, anti-RXR (DBD mutation: RXRa K156A/R161A, NR concentration 270 nM, RXRa partner concentration 90 nM)
- protocol_text: PBM binding z-score (relative to random genomic background probes); higher = stronger binding; sequences stand for … in GC…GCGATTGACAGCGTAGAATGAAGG
If the reported PBM binding z-score equals or exceeds 3, assign yes (1). If not, assign no (0).

>>> print(df.to_string())
                                  seq  label_value
0  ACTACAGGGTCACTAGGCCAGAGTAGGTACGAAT      yes (1)
1  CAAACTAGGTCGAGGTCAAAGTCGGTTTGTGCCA      yes (1)
2  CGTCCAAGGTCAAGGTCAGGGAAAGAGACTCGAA      yes (1)
3  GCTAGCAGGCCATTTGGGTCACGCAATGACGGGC       no (0)
4  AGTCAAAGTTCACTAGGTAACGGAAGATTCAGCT       no (0)
5  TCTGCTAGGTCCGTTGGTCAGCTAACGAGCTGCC       no (0)

* * *

- Test system: LXRb:RXRa (NR concentration 270 nM, RXRa partner concentration 90 nM)
- protocol_text: PBM binding z-score (relative to random genomic background probes); higher = stronger binding; sequences stand for … in GC…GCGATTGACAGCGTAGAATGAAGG
property_measured: PBM binding z-score

>>> print(df.to_string())
                                   seq  recorded_result
 0  TACCCTAGGTCATGCGGGCCAGTATAGTGTCGGC             3.42
 1  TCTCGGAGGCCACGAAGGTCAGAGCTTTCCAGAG             1.25
 2  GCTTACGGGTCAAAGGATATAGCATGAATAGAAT             3.44
 3  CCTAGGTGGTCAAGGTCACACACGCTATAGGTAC             3.57
 4  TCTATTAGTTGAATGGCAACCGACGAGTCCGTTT             1.01
 5  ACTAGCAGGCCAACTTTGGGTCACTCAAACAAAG            0.931
 6  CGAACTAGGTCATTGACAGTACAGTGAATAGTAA             2.02
 7  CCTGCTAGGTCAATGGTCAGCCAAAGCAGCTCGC             1.36
 8  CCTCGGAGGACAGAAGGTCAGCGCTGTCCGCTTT             1.17
 9  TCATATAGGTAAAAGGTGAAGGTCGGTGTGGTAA             2.08
10  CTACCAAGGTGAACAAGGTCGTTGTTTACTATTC             1.85
11  ACAATTAGTTGACTTAGGGCAACCGATACGACGC           0.0599

* * *

- System: PPARg:RXRa DBDmut IVT, anti-RXR (DBD mutation: RXRa K156A/R161A, NR concentration 270 nM, RXRa partner concentration 90 nM)
- protocol_text: PBM binding z-score (relative to random genomic background probes); higher = stronger binding; sequences stand for … in GC…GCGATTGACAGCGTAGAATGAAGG
property_measured: PBM binding z-score

>>> df
                                   seq  recorded_result
 0  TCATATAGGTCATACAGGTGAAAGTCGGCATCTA             6.93
 1  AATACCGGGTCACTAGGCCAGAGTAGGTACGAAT             4.09
 2  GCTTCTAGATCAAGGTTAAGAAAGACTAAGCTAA            0.942
 3  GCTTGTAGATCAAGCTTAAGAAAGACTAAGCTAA            0.937
 4  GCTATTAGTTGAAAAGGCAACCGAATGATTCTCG           -0.116
 5  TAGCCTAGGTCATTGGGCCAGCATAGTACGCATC             2.61
 6  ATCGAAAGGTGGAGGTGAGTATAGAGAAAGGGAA           -0.413
 7  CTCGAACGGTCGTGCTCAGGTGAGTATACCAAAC            0.143
 8  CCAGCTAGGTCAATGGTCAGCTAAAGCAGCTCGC              4.9
 9  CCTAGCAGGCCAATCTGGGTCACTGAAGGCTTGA             4.44
10  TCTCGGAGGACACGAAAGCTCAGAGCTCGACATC             1.28
11  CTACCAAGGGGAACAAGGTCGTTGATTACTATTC            0.796
